target: MAP/microtubule affinity-regulating kinase 3 (Homo sapiens); conditions: at 0.1 µM
Exercise: state measured inhibition for each of the compounds provided.
// units = %; emit number, no label

MAP/microtubule affinity-regulating kinase 3 (Homo sapiens) / inhibition / CCn1cc(-c2ccnc3[nH]ccc23)c(-c2cccc(NC(=O)Nc3ccc(OCc4ccccc4)cc3)c2)n1 : value?
1.29

Please tell me: inhibition of [O-][S+]1CCN(Cc2ccc(-c3ccc4ncnc(Nc5ccc(OCc6cccc(F)c6)c(Cl)c5)c4c3)o2)CC1 , system MAP/microtubule affinity-regulating kinase 3 (Homo sapiens)?
3.31

Lookup: inhibition / MAP/microtubule affinity-regulating kinase 3 (Homo sapiens) / Cc1cccc2c1NC(=O)/C2=N\Nc1ccc(S(N)(=O)=O)cc1
2.64

Lab request: please report inhibition under test system MAP/microtubule affinity-regulating kinase 3 (Homo sapiens) for COc1cccc(-n2ncc3c(N/N=C/c4ccc(F)cc4)ncnc32)c1
4.91

Request body: readout inhibition, system MAP/microtubule affinity-regulating kinase 3 (Homo sapiens), query CC(=O)NCc1cccc(C#Cc2cncnc2Nc2ccc(OCc3cccc(F)c3)c(Cl)c2)c1 . Return the value.
1.71

What measured inhibition is associated with Clc1ccc(-c2nn3ncccc3c2-c2ccnc(Nc3ccccc3)n2)cc1 on MAP/microtubule affinity-regulating kinase 3 (Homo sapiens)?
-2.23

Form field - read-out: inhibition; system: MAP/microtubule affinity-regulating kinase 3 (Homo sapiens); submitted item: Cc1cccc(Nc2ncc(-c3ccccc3)o2)c1
3.98

What is its inhibition for MAP/microtubule affinity-regulating kinase 3 (Homo sapiens)? Entry: CC(C)COC(=O)c1ccc2c(c1)/C(=C/Nc1ccc(S(N)(=O)=O)cc1)C(=O)N2
33.3

Test system MAP/microtubule affinity-regulating kinase 3 (Homo sapiens); read-out inhibition; what value for NS(=O)(=O)c1ccc(N/N=C2\C(=O)Nc3ccc4ncccc4c32)cc1 ?
8.25

Notebook: pull reported inhibition for MAP/microtubule affinity-regulating kinase 3 (Homo sapiens), entry COc1ccc2c(-c3ccnc(Nc4cccc(OC(F)(F)F)c4)n3)cnn2n1
0.91

What value of inhibition on MAP/microtubule affinity-regulating kinase 3 (Homo sapiens) does COc1ccc(CNC(=O)c2ccc(-c3cc(-c4nnc(C)o4)ccc3C)cc2)cc1 have?
1.55

Recall the recorded inhibition for CCCN(CCS(C)(=O)=O)Cc1ccc(-c2ccc3ncnc(Nc4ccc(OCc5cccc(F)c5)c(Cl)c4)c3c2)o1 with MAP/microtubule affinity-regulating kinase 3 (Homo sapiens) and state it.
-1.25

Give MAP/microtubule affinity-regulating kinase 3 (Homo sapiens) inhibition for COc1ccc(-c2nn3ncccc3c2-c2ccnc(Nc3ccc4c(c3)OCCO4)n2)cc1
3

Request - read-out inhibition | tested on MAP/microtubule affinity-regulating kinase 3 (Homo sapiens) | compound O=C(O[C@H]1CN[C@H](C#Cc2cc3ncnc(Nc4ccc(Cc5ccccc5)cc4)c3s2)C1)N1CCOCC1
2.46

Short answer please: inhibition, MAP/microtubule affinity-regulating kinase 3 (Homo sapiens), entry COC(=O)Nc1nc2ccc(S(=O)(=O)c3ccc(NC(=O)Nc4cc(C(F)(F)F)ccc4F)cc3)cc2[nH]1
3.97

Could you share what inhibition was measured for NC(=O)c1sc(-n2cnc3ccc(C(F)(F)F)cc32)cc1OCc1ccccc1Br , tested on MAP/microtubule affinity-regulating kinase 3 (Homo sapiens)?
0.94

Give recorded inhibition with MAP/microtubule affinity-regulating kinase 3 (Homo sapiens) for the following compound: COc1cc(/C=N/Nc2ncnc3[nH]ncc23)ccc1O
7.13

Entry COc1ccc(-c2cc3c(N)ncnc3o2)cc1 , system MAP/microtubule affinity-regulating kinase 3 (Homo sapiens): what inhibition was measured?
-1.55

Please provide the recorded inhibition for CCN1CCC(CC(=O)Nc2n[nH]c3nnc(-c4cccc(F)c4F)cc23)CC1 , tested on MAP/microtubule affinity-regulating kinase 3 (Homo sapiens).
2.14

Lab note: need inhibition for O=C(Nc1n[nH]c2cc(-c3ccc(F)cc3)ccc12)C1CC1 on MAP/microtubule affinity-regulating kinase 3 (Homo sapiens), anyone have it?
2.03

Hello, I am looking for reported inhibition with MAP/microtubule affinity-regulating kinase 3 (Homo sapiens) for CCOc1ccc2c(-c3ccnc(Nc4cccc(C(F)(F)F)c4)n3)cnn2n1 . Could you help?
1.6

Report inhibition for Cc1ccc(O)cc1Nc1ccnc2cc(-c3ccccn3)ccc12 tested on MAP/microtubule affinity-regulating kinase 3 (Homo sapiens).
4.39

Which measured inhibition belongs to Nc1nc(-c2ccc(F)cc2)c(-c2ccc3ncccc3n2)s1 , tested on MAP/microtubule affinity-regulating kinase 3 (Homo sapiens)?
3.4

What inhibition appears in the records for this compound with MAP/microtubule affinity-regulating kinase 3 (Homo sapiens)? NS(=O)(=O)c1ccc(Nc2ncc(-c3ccccc3)o2)cc1
4.38

Please tell me: inhibition of c1cc(-c2cnn3nc(N4CCOCC4)ccc23)nc(NC2CC2)n1 , system MAP/microtubule affinity-regulating kinase 3 (Homo sapiens)?
4.76

Query the reported inhibition for MAP/microtubule affinity-regulating kinase 3 (Homo sapiens); item: COc1cc(N2CCN(C(C)C)CC2)ccc1Nc1nc(Nc2ccc(F)cc2C(N)=O)c2cc[nH]c2n1
12.3

Notebook: pull reported inhibition for MAP/microtubule affinity-regulating kinase 3 (Homo sapiens), entry CC(C)(CO)CNC(=O)c1ccc2c(c1)/C(=N/Nc1ccc(S(N)(=O)=O)cc1)C(=O)N2
5.88

Which inhibition is reported with MAP/microtubule affinity-regulating kinase 3 (Homo sapiens) for this entry: COc1ccc(-c2oc3ncnc(N)c3c2-c2ccc(NC(=O)Nc3cc(C(F)(F)F)ccc3F)cc2)cc1 ?
0.75

Given the entry COc1cccc(-c2c[nH]c3c(N/N=C/c4ccncc4)ncnc23)c1 , what inhibition was observed with MAP/microtubule affinity-regulating kinase 3 (Homo sapiens)?
6.06

So what inhibition did Fc1ccc(-c2nn3ncccc3c2-c2ccnc(Nc3ccc4c(c3)OCCO4)n2)cc1 get with MAP/microtubule affinity-regulating kinase 3 (Homo sapiens)?
4.24

# value lookup — system MAP/microtubule affinity-regulating kinase 3 (Homo sapiens), readout inhibition, item CN(C)CCOc1ccc(-c2nc(-c3ccncc3)c(-c3ccc4c(c3)CC/C4=N\O)[nH]2)cc1
2.63

Query for MAP/microtubule affinity-regulating kinase 3 (Homo sapiens): what inhibition does the record show for CC1=C(C(=O)Nc2cc(Cl)c3[nH]ncc3c2)C(c2ccc(C(F)(F)F)cc2)CC(=O)N1 (stereo not given) ?
3.36

Checklist item: inhibition tested on MAP/microtubule affinity-regulating kinase 3 (Homo sapiens), entry CC(=O)Nc1cccc(C#Cc2cncnc2Nc2ccc(OCc3cccc(F)c3)c(Cl)c2)c1 , value?;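 further: mean percent inhibition of MARK3 kinase activity, measured within the GSK PKIS screening panel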
3.81

Provide the documented inhibition with MAP/microtubule affinity-regulating kinase 3 (Homo sapiens) as the system for CCn1c(-c2nonc2N)nc2ccccc21
3.42

Under MAP/microtubule affinity-regulating kinase 3 (Homo sapiens): inhibition value of O=S(=O)(CCNCc1ccc(-c2ccc3ncnc(Nc4ccc(OCc5cccc(F)c5)c(Cl)c4)c3c2)o1)c1ccccc1 ?
3.94

----------
target: Serine/threonine-protein kinase PAK 2 (Homo sapiens); conditions: at 0.1 µM;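 further: values are mean percent inhibition of PAK2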
metric_name: inhibition (%)
# value in %; strip the unit string

Recorded inhibition of COc1ccc2c(-c3ccnc(Nc4cccc(OC(F)(F)F)c4)n3)cnn2n1 , please.
4.37

What does the data say about its inhibition? Entry: FC(F)(F)c1cccc(-c2nn3ncccc3c2-c2ccnc(Nc3ccc4c(c3)OCCO4)n2)c1
1.01

What does the data say about its inhibition? Entry: NC(=O)c1sc(-n2cnc3ccc(C(F)(F)F)cc32)cc1OCc1ccccc1Br
0.77

Bench note: what inhibition did CN1CCC(n2cnc(-c3ccc(F)cc3)c2-c2ccnc(Nc3ccccc3)n2)CC1 show?
0.86

inhibition lookup needed for O=S(=O)(CCNCc1ccc(-c2ccc3ncnc(Nc4ccc(OCc5cccc(F)c5)c(Cl)c4)c3c2)o1)c1ccccc1 , thanks.
2.7

Please look up its inhibition: COC(=O)Nc1nc2ccc(Oc3ccc(NC(=O)Nc4cccc(Cl)c4)cc3)cc2[nH]1
-0.81

Recorded inhibition for NS(=O)(=O)c1ccc(N/N=C2\C(=O)Nc3ccc4ncccc4c32)cc1 , please?
1.04

# lookup: inhibition of Cc1ccc(O)cc1Nc1ccnc2cc(-c3ccccn3)ccc12
3.37

Quick check: inhibition of CNC(=O)c1cccc(C#Cc2cncnc2Nc2ccc(OCc3cccc(F)c3)c(Cl)c2)c1 ?
0.68

----------
target: Protein kinase C iota type (Homo sapiens); conditions: at 1 µM
Please provide measured inhibition for the entries that follow.
Your answer should be a plain number; it is taken to be in %.

Query for Protein kinase C iota type (Homo sapiens): what inhibition does the record show for Nc1nc(-c2ccc(F)cc2)c(-c2ccc3ncccc3n2)s1 ?
1.59

Return inhibition measured with Protein kinase C iota type (Homo sapiens) given this compound: COc1cc(Nc2nccc(Nc3ccc4c(C)n[nH]c4c3)n2)cc(OC)c1OC
3.92

I'm curious: which inhibition was measured for c1ccc(COc2ccc(Nc3ncnc4ccc(-c5ccco5)cc34)cc2)cc1 tested on Protein kinase C iota type (Homo sapiens)?
-0.86

Value wanted: inhibition (Protein kinase C iota type (Homo sapiens)) of entry CCNC(=O)O[C@H]1CN[C@H](C#Cc2cc3ncnc(Nc4ccc(OCc5cccc(F)c5)c(Cl)c4)c3s2)C1
3.17

Give the reported inhibition for Fc1ccc(-c2cc(-c3c[nH]nc3-c3ccccn3)ccn2)cc1 (system: Protein kinase C iota type (Homo sapiens)).
0.58

Field: inhibition (Protein kinase C iota type (Homo sapiens)). Entry: CCCN1CCC(c2ccc(Nc3nc(Nc4cc(F)ccc4C(N)=O)c4cc[nH]c4n3)c(OC)c2)CC1
1.12

Find the measured inhibition: item COC(=O)c1sc(-n2cnc3cc(OC)c(OC)cc32)cc1OCc1ccccc1C(F)(F)F , target or system Protein kinase C iota type (Homo sapiens).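 Further: reported figures are mean inhibition values from the GSK PKIS screen.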
2.66

Provide value of inhibition for this record tested with Protein kinase C iota type (Homo sapiens): Clc1ccc(-c2nn3ncccc3c2-c2ccnc(Nc3ccccc3)n2)cc1
0.46

Query the reported inhibition for Protein kinase C iota type (Homo sapiens); item: COc1ccc(-c2oc3ncnc(N)c3c2-c2ccc(NC(=O)Nc3cc(C(F)(F)F)ccc3F)cc2)cc1
0.63

Record CNC(=O)c1cncc(/C=C/c2ccccc2Cl)c1 : what is its inhibition with Protein kinase C iota type (Homo sapiens)?
0.56
